Assay System: Beta-2 adrenergic receptor (Homo sapiens)
Protocol: Adrenergic beta2 receptor (ADRB2) small molecule agonists, cell-based qHTS assay (AID 1963593);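 also: CHO cells stably overexpressing human ADRB2; % is scaled to controls: 0 for no effect and ±100 for the full control effect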
Study Conditions: CHO-ADRB2 cells, cAMP HTRF, 30 min; series mostly up to 92.4 µM
Records with an inconclusive call do not appear. Activity calls are given as the source filed them. Calls follow the shape of the full dose curve.
Quantity Measured: activation

Challenge: Please look up its activation: CC1=CC(C)C(C=O)C(C)C1 (configuration not stated)
Response given: inactive

Challenge: Sample Cc1ccc(NC=O)c(C)c1 — what was its activation?
Response given: inactive

Challenge: Need activation of O=C1CN(/N=C/c2ccc([N+](=O)[O-])o2)C(=O)N1 , thanks.
Response given: inactive

Challenge: Fill in: activation of Nc1ccc(/C=C/c2ccc(N)cc2S(=O)(=O)O)c(S(=O)(=O)O)c1 is ___
Response given: -7.68% [at 0.349 µM] (inactive)

Challenge: Param item = CN(C)CCCO[C@@H]1[C@H]2OC(C)(C)O[C@H]2O[C@@H]1C(O)CO (some centres not stated) ; retrieve measured activation.
Response given: inactive

New cases:
Challenge: Item O=C(O)CN(CCN(CC(=O)O)CC(=O)O)CC(=O)O has what recorded activation?
Response given: 11.4% [at 3.27 µM] (inactive)

Challenge: For COc1nc(C)nc(Cl)c1NC1=NCCN1 , what is its reported activation?
Response given: inactive

Challenge: I am curious: what activation value has been reported for N[C@@H]1CONC1=O ?
Response given: inactive

Challenge: Find the recorded activation belonging to CCOC(=O)COc1ccc2c(c1)CC(NCC(O)c1cccc(Cl)c1)CC2 (configuration not stated) and report it.
Response given: inactive

###

Protocol: Nuclear factor erythroid 2-related factor 2/antioxidant responsive element (Nrf2/ARE) small molecule agonists: qHTS cell viability counter screen in human keratinocytes (AID 1919968); also: % is scaled to controls: 0 for no effect and ±100 for the full control effect; nearly all actives have a fitted effect of over 55% in size
Study Conditions: KeratinoSens HaCaT ARE cells viability, CellTiter-Fluor, 24 h; series mostly up to 92.4 µM
Records with an inconclusive call do not appear. Activity calls are given as the source filed them. Calls follow the shape of the dose curve; as a rule, active = well fitted cell-killing curve with a large enough effect in the repeat runs; inconclusive = weak or mixed curves, or effect the other way; inactive = flat fitted curve, though single readings scatter.
Entry note: the call must match one of 1 (active), -1 (inactive)

Sample answers from the record:
Challenge: Give the logged outcome of this assay for the following compound: O=C(c1ccccc1)C1CCCCC1
Response given: -1

Challenge: Returns: the outcome recorded for CN(C)[C@@H]1C(=O)C(C(N)=O)=C(O)[C@@]2(O)C(=O)C3=C(O)c4c(O)cccc4C[C@H]3C[C@@H]12 in this assay.
Response given: -1

Challenge: Could you kindly confirm the outcome this assay logged for CCN(CC)C(=O)c1ccc(O)c(OC)c1 ?
Response given: -1

Continue with the next compound.
Challenge: Call for entry CSc1ccc(Oc2ccc(S(N)(=O)=O)cc2CN(C)C)cc1C :
Response given: -1

###

Protocol: cAMP Responsive Elements (CRE) small molecule agonists, cell-based qHTS assay (AID 1963590); also: % is scaled to controls: 0 for no effect and ±100 for the full control effect
Study Conditions: CRE-bla HEK293T, beta-lactamase FRET ratio, 3 h; series mostly up to 92.4 µM
Inconclusive results are not listed. The source made the active and inactive calls. Calls come from the whole dose curve.
Quantity Measured: activation

Please review the following examples before continuing.
Challenge: Entry under review: CCCCNCC . Reported activation?
Response given: inactive

Challenge: Give the measured activation of NCCc1ccn[nH]1 .
Response given: inactive

Challenge: I'd like to know its activation. The molecule in question is COc1ccc2c(c1)c(CC(=O)OC/C=C(\C)CC/C=C(\C)CCC=C(C)C)c(C)n2C(=O)c1ccc(Cl)cc1
Response given: inactive

Challenge: If you can, please state the reported activation value of Sc1nc2ccccc2s1 .
Response given: inactive

Challenge: What measured activation goes with CC(C)C[C@H]1C(=O)N2CCC[C@H]2[C@]2(O)O[C@](NC(=O)[C@@H]3C=C4c5cccc6[nH]c(Br)c(c56)C[C@H]4N(C)C3)(C(C)C)C(=O)N12 ?
Response given: inactive

Challenge: Would you kindly share the measured activation for C/C=C1\[C@H]2C=C(C)C[C@]1(N)c1ccc(=O)[nH]c1C2 ?
Response given: inactive

Next up:
Challenge: Name the recorded activation for Cc1cc(O)c(C(C)C)cc1Cl .
Response given: inactive
